format: in vivo, human; settings: human, plasma, po, 180 mg, t1/2 (terminal elimination half-life), Mean (SD), fed (high-fat meal), single oral 180 mg, N = 24
VALUE_KIND: half-life

Could you share which half-life value was measured for COc1cc(N2CCC(N3CCN(C)CC3)CC2)ccc1Nc1ncc(Cl)c(Nc2ccccc2P(C)(C)=O)n1 ?
31.1 h

---

assay type: in vivo, human; conditions: human, plasma, po, 180 mg, Cmax, Geometric mean (% CV), fasted, single oral 180 mg, N = 21
VALUE_KIND: Cmax (ng/mL)
Answers are plain numbers, in ng/mL.

Could you share which Cmax value was measured for COc1cc(N2CCC(N3CCN(C)CC3)CC2)ccc1Nc1ncc(Cl)c(Nc2ccccc2P(C)(C)=O)n1 ?
701

---

format: in vivo, human; conditions: human, plasma, po, 180 mg, Cmax, Mean (SD), fed (high-fat meal), single oral 180 mg, healthy subjects, N = 24
VALUE_KIND: Cmax
Remember to follow the number with its unit.

Could you share which Cmax value was measured for COc1cc(N2CCC(N3CCN(C)CC3)CC2)ccc1Nc1ncc(Cl)c(Nc2ccccc2P(C)(C)=O)n1 ?
622 ng/mL
